molecular target: 5-Lipoxygenase from RBL-1 20,000 xg Supernatant (Rattus norvegicus, UniProt P12527); construct: supermatant from 1.5 million homogenized RBL-1 cells; endogenous in cells; host or cells: RBL-1 cells, 20,000 x g supernatant of homogenate; assay: In vitro inhibition of 5-lipoxygenase from RBL-1 20,000 xg supernatant; assay type: biochemical; details: radiolabeled arachidonic acid
Sequence (P12527 whole entry): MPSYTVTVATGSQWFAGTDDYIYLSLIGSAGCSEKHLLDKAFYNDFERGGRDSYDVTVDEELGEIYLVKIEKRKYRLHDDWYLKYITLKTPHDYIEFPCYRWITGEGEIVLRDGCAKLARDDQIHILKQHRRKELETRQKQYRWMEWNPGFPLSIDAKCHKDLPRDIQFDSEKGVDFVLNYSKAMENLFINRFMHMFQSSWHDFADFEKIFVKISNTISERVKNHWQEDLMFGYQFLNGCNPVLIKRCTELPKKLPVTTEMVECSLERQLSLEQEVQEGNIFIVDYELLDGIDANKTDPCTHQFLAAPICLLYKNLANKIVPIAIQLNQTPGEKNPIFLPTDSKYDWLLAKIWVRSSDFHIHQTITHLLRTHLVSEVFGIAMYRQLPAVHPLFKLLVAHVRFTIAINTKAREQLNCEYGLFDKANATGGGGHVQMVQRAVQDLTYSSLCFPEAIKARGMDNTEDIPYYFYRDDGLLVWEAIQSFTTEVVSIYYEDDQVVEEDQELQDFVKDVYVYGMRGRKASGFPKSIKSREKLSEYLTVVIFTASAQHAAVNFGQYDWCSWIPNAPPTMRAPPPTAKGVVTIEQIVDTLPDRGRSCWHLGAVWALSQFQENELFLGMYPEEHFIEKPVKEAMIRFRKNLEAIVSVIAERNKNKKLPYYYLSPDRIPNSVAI
pIC50: −log10 of the molar value.
MEASUREMENT_LABEL: pIC50

These recorded examples may help you get a feel for the data.
Value of measured pIC50 for the entry "NC(=O)N(O)Cc1cc(Oc2ccc(Cl)cc2)cs1" : 6.40

So for CC(c1ccc(Br)cc1)N(O)C(=O)NCCO (centres unmarked) , the logged pIC50 turned out to be 6.52

According to the records, this compound "CNC(=O)N(O)Cc1cccs1" displays pIC50 of 5.17

Entry "NC(=O)N(O)Cc1ccc(-c2ccccn2)s1" , pIC50 reported as 5.68

The compound listed as "NC(=O)N(O)Cc1ccc(Cl)s1" shows pIC50 equal to 5.70

pIC50 for CNC(=O)N(O)C(C)c1ccc(Cl)cc1 (centres unmarked) is 6.40

For this compound ( NC(=O)N(O)Cc1cccs1 [Example 45, N-hydroxy-N-(thien-2-yl)methyl urea] ), measured pIC50 is 5.17

Measured pIC50, CCOC(=O)CNC(=O)N(O)C(C)c1cc(C)sc1C (centres unmarked) : 6.00

(1) CC(c1ccc(-c2ccccn2)s1)N(O)C(N)=O (centres unmarked)
(2) CNC(=O)N(O)C(C)c1ccc(F)c(Br)c1 (centres unmarked)
(3) CC(c1ccc(Cc2ccccc2)s1)N(O)C(N)=O (centres unmarked)
(4) CCCCOc1cccc(C(C)N(O)C(N)=O)c1 (centres unmarked)
Sort the 4 compounds by pIC50; largest first, smallest last. # answer = labels listed in requested order
3, 2, 1, 4

(a) CNC(=O)N(O)C(C)c1ccc(Cl)c(C)c1 (centres unmarked)
(b) CC(c1ccc(F)cc1)N(O)C(N)=O (centres unmarked)
From the items above, decide which of a and b has the lower pIC50 reading. Pick one; state its label.
b
(b: 5.74, a: 6.22)

(1) CC(c1ccc(OCc2ccccc2)cc1)N(O)C(=O)N(C)C (centres unmarked)
(2) CC(c1ccc(Sc2ccccc2)s1)N(O)C(N)=O (centres unmarked)
Recorded pIC50 values differ for 1 and 2 ; which one is higher? State your choice using its label.
2
(2: 6.40, 1: 6.17)

(P) Cc1ccc(C(C)N(O)C(N)=O)cc1 (centres unmarked)
(Q) CC(c1ccc(Br)s1)N(O)C(N)=O (centres unmarked)
(R) CCCCOc1ccc(C(C)N(O)C(N)=O)cc1 (centres unmarked) [Example 119]
Task for the reader: rank each entry by its pIC50, from the minimum upward. Your reply should list the labels following the order given in the request.
Q, R, P

(P) NC(=O)N(O)Cc1sccc1Br
(Q) NC(=O)N(O)Cc1csc(Sc2ccccc2)c1
Compare P and Q by numeric pIC50 and name the larger one. Choose, then provide that item's label.
Q
(Q: 6.40, P: 5.92)

(A) Cc1ccc(CC(C)N(O)C(N)=O)s1 (centres unmarked)
(B) CC(C)(C)Sc1ccc(/C=C/CN(O)C(N)=O)s1
(C) Cc1ccsc1C(C)N(O)C(N)=O (centres unmarked)
Rank the 3 compounds: largest pIC50 first, smallest last. In plain terms: list the labels in the order you were asked to.
B, A, C
(B: 6.70, A: 6.10, C: 5.68)

(1) CC(c1ccc(SC(C)(C)C)s1)N(O)C(N)=O (centres unmarked)
(2) NC(=O)N(O)Cc1sccc1Sc1ccccc1
Hey, between 1 and 2 which has a smaller measured pIC50? Please identify the chosen entry by its label.
1

(P) COc1cc(C(C)N(O)C(N)=O)cc(OC)c1OCc1ccccc1 (centres unmarked)
(Q) CNC(=O)N(O)C(C)c1ccc(OCc2ccccc2)cc1 (centres unmarked)
(R) CC(c1ccc2ccccc2c1)N(O)C(=O)NO (centres unmarked)
(S) CNC(=O)N(O)C(C)c1ccc(F)cc1F (centres unmarked)
Order by pIC50, ascending. Quick reminder: the answer is the labels in the order asked.
S, P, R, Q

(P) Cc1cc(C(C)N(O)C(N)=O)ccc1Cl (centres unmarked)
(Q) CNC(=O)N(O)Cc1cccc(Oc2ccccc2)c1
Between P and Q , whose measured pIC50 reads higher? Reply briefly: the label of your chosen item.
P
(P: 6.30, Q: 6.10)
